# Test system: normotensive rats
# Method description: Decrease of blood pressure on normotensive rats measured by average arterial tension
# Assay type: in vivo, Wistar rats
# Set-up: unit not given here
# Protocol conditions: 1 mg/kg i.d., time 60 min
Readout label: Average arterial tension
Respond numerically, and do not add a unit to the figure.

Example molecules with recorded Average arterial tension:
COc1cc2c(cc1OC)[C@@H](N1CCCC1=O)[C@H](O)C(C)(C)O2 (racemic)	71
CC1(C)Oc2ccc(C#N)cc2C(N2CCCC2=O)C1O (stereo not shown) [BRL 34915, reference compound]	61
COc1cc2c(cc1C#N)[C@@H](N1CCCC1=O)[C@H](O)C(C)(C)O2 (racemic)	122

Prompt: Name the recorded Average arterial tension for COc1cc2c(cc1[N+](=O)[O-])[C@@H](N1CCCC1=O)[C@H](O)C(C)(C)O2 (relative stereo) .
Response: 107

###

# Test system: normotensive rats
# Method description: Decrease of blood pressure on normotensive rats measured by average arterial tension
# Format: in vivo, Wistar rats
# Design: unit not given here
# Protocol conditions: 1 mg/kg i.d., time 30 min
Readout label: Decrease (of average arterial tension)
Please give the numeric answer without any surrounding text.

CC1(C)Oc2ccc(C#N)cc2C(N2CCCC2=O)C1O (stereo not drawn) [BRL 34915, reference compound]	-63
COc1cc2c(cc1[N+](=O)[O-])[C@@H](N1CCCC1=O)[C@H](O)C(C)(C)O2 (relative stereo)	-16

Now look at this one.
Prompt: Which Decrease (of average arterial tension) value belongs to COc1cc2c(cc1OC)[C@@H](N1CCCC1=O)[C@H](O)C(C)(C)O2 (racemic) ?
Response: -45
